Listed here: compounds with reported Ki for Cannabinoid receptor 2 (Homo sapiens, UniProt P34972).
readoutType: Ki (µM)

> print(dat)
                              chemicalsmiles  readouttype  resultunits  qualifier  resultvalue
 1  CC1(C)Oc2cc(C(=O)c3c[nH]c4ccccc34)cc(O)c2[C@@H]2C[C@H](O)CC[C@H]21           Ki           µM          =        0.159
 2  CC1(C)Oc2cc(C(=O)c3cccc(C(F)(F)F)c3)cc(O)c2[C@@H]2C[C@H](O)CC[C@H]21           Ki           µM          =       0.0373
 3  CC1(C)Oc2cc(C(=O)c3cc4ccccc4o3)cc(O)c2[C@@H]2C[C@H](O)CC[C@H]21           Ki           µM          =        0.209
 4  CC1(C)Oc2cc(C(=O)c3ccccc3)cc(O)c2[C@@H]2C[C@H](O)CC[C@H]21           Ki           µM          =        0.587
 5  Cn1cc(C(=O)c2cc(O)c3c(c2)OC(C)(C)[C@@H]2CC[C@@H](O)C[C@@H]32)c2ccccc21           Ki           µM          =         3.01
 6  CC1(C)Oc2cc(C(=O)c3cc4ccccc4s3)cc(O)c2[C@@H]2C[C@H](O)CC[C@H]21           Ki           µM          =        0.113
 7  CC1(C)Oc2cc(C(=O)c3coc4ccccc34)cc(O)c2[C@@H]2C[C@H](O)CC[C@H]21           Ki           µM          =        0.118
 8  CC1(C)Oc2cc(C(=O)c3csc4ccccc34)cc(O)c2[C@@H]2C[C@H](O)CC[C@H]21           Ki           µM          =        0.125
 9  CC1(C)Oc2cc(C(=O)c3cccnc3)cc(O)c2[C@@H]2C[C@H](O)CC[C@H]21           Ki           µM          >            1
10  CC1(C)Oc2cc(C(=O)c3ccsc3)cc(O)c2[C@@H]2C[C@H](O)CC[C@H]21           Ki           µM          =         1.55
11  CC1(C)Oc2cc(C(=O)c3ccncc3)cc(O)c2[C@@H]2C[C@H](O)CC[C@H]21           Ki           µM          >            1
12  CC1(C)Oc2cc(C(=O)c3ccccn3)cc(O)c2[C@@H]2C[C@H](O)CC[C@H]21           Ki           µM          >            1
13  CC1(C)Oc2cc(C(=O)c3cscn3)cc(O)c2[C@@H]2C[C@H](O)CC[C@H]21           Ki           µM          >            1
